molecular target: MK2 (Homo sapiens, UniProt P49137); assay: MK2 degradation in human SW1353 cells (MSD, 24 h); type: cell-based; design: endogenous in cells; host or cells: SW-1353 (ATCC HTB-94); settings: read-out: MK2 MSD SW 1353 24 h Dmax %
Sequence (P49137 whole entry): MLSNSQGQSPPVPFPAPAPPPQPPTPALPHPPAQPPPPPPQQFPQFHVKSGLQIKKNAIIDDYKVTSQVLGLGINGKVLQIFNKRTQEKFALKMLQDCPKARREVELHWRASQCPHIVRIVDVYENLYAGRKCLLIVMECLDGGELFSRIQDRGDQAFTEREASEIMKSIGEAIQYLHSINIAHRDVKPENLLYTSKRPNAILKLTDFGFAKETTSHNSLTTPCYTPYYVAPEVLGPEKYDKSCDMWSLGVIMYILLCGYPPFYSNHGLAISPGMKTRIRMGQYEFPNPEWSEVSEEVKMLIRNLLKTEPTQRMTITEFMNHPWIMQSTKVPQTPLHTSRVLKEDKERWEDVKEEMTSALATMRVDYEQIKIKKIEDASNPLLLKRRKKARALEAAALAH
The following molecules are shown together with reported Dmax values.

Molecule: C[C@@H]1Cc2[nH]c(-c3ccnc(-c4ccc(N5CCC(CN6CCC(c7cccc8c7n(C)c(=O)n8C7CCC(=O)NC7=O)CC6)CC5)cc4)c3)cc2C(=O)N1 (stereo partly drawn)
Dmax: > 75%
//
Molecule: Cc1nc(N2CCN(CCCc3ccc4c(c3)n(C)c(=O)n4C3CCC(=O)NC3=O)CC2)ccc1-c1ccc2c(ccc3sc4c(c32)NC[C@@H](C)NC4=O)n1 (stereo partly drawn)
Dmax: > 75%
//
Molecule: C[C@@H]1Cc2[nH]c(-c3ccnc(-c4ccc(N5CCN(CC6CCN(c7cccc8c7n(C)c(=O)n8C7CCC(=O)NC7=O)CC6)CC5)cc4)c3)cc2C(=O)N1 (stereo partly drawn)
Dmax: > 75%
//
Molecule: O=C1CCN(c2cncc3c(N4CCC(CN5CCN(c6ccc(-c7cc(-c8cc9c([nH]8)C8(CC8)CNC9=O)ccn7)cc6)CC5)CC4)cccc23)C(=O)N1
Dmax: > 75%
//
Molecule: C[C@@H]1CNc2c(sc3ccc4nc(N5CCN(C6CC7(CCN(c8ccc9c(c8)n(C)c(=O)n9C8CCC(=O)NC8=O)CC7)C6)CC5)ccc4c23)C(=O)N1 (stereo partly drawn)
Dmax: > 75%
//
Molecule: Cn1c(=O)n(C2CCC(=O)NC2=O)c2ccc(N3CCC(CN4CCN(c5ccc(-c6cc(-c7cc8c([nH]7)C7(CC7)CNC8=O)ccn6)cc5)CC4)CC3)cc21 (stereo not drawn)
Dmax: > 75%
//
Molecule: Cn1c(=O)n(C2CCC(=O)NC2=O)c2cccc(C3CCN(CC4CCN(c5ccc(F)c(-c6cc(-c7cc8c([nH]7)CCNC8=O)ccn6)c5)CC4)CC3)c21 (stereo not drawn)
Dmax: < 50%
//
Molecule: CN1CC2(CNC(=O)c3c2[nH]c2c3CCc3cnc(-c4cc(N5CCN(CCCCc6cccc7c6n(C)c(=O)n7C6CCC(=O)NC6=O)CC5)ccc4F)cc3-2)C1 (stereo not drawn)
Dmax: < 50%

Sample Cc1cc(N2CCN(CCCc3ccc4c(c3)n(C)c(=O)n4C3CCC(=O)NC3=O)CC2)ncc1-c1ccc2c(ccc3sc4c(c32)NC[C@@H](C)NC4=O)n1 (stereo partly drawn) ; Dmax observed: 50 to 75%

Record C[C@@H]1CNc2c(sc3ccc4nc(-c5ccc(N6CCC(CN7CCC(c8cccc9c(N%10CCC(=O)NC%10=O)cncc89)CC7)CC6)cc5)ccc4c23)C(=O)N1 , field Dmax: > 75%

----------
target: MK2 (Homo sapiens); assay: MK2 degradation in human THP-1 monocytic cells (MSD, 24 h); assay type: cell-based; parameters: endogenous in cells; details: THP-1 cells, read-out: MK2 MSD THP-1 degradation 24 h GMean External Abs DC50
Attribute Measured: DC50

Study these solved cases before continuing.
Compound: C[C@@H]1CNc2c(sc3ccc4nc(N5C[C@@H]6C[C@H]5CN6CC5CCN(c6cccc7c6n(C)c(=O)n7C6CCC(=O)NC6=O)CC5)ccc4c23)C(=O)N1 (some centres unmarked)
DC50: > 100 nM

Compound: C[C@@H]1CNc2c(sc3ccc4nc(-c5ccc([C@H]6CC[C@H](CN7CCN(c8ccc9c(c8)n(C)c(=O)n9C8CCC(=O)NC8=O)CC7)CC6)nc5)ccc4c23)C(=O)N1 (some centres unmarked)
DC50: < 1 nM

Compound: C[C@@H]1CNc2c(sc3ccc4nc(-c5ccc(N6CCN(CC7CN(c8cccc9c8n(C)c(=O)n9C8CCC(=O)NC8=O)C7)CC6)nc5)ccc4c23)C(=O)N1 (some centres unmarked)
DC50: < 1 nM

Compound: C[C@@H]1CNc2c(sc3ccc4nc(-c5cccc(C#CCCNC(=O)CCCCCCCc6cccc7c6n(C)c(=O)n7C6CCC(=O)NC6=O)c5)ccc4c23)C(=O)N1 (some centres unmarked)
DC50: 10 to 100 nM

Per the records, this compound ( C[C@@H]1CNc2c(sc3ccc4nc(-c5ccc(N6CCN(CCCc7ccc8c(c7)n(C)c(=O)n8C7CCC(=O)NC7=O)CC6)cc5F)ccc4c23)C(=O)N1 (some centres unmarked) ) has DC50 equal to < 1 nM

----------
Molecular target: MK2 (Homo sapiens, UniProt P49137)
Assay: MK2 degradation in human SW1353 cells (MSD, 24 h)
Type: cell-based
Parameters: endogenous in cells; host or cells: SW-1353 (ATCC HTB-94)
Conditions: read-out: MK2 MSD SW1353 degradation 24 h GMean External Abs DC50
Experimental: MK2 Degradation in Human SW1353 Cells […] After 3 more washes, the secondary detection antibody (SULFO-Tag anti rabbit antibody R32AB-5) was added at a final concentration of 1 microgram per ml at 25 microlitres per well and shaken at room temperature for 1 hour at 600 rpm. After 3 more washes, the 1×MSD (diluted from 5× concentrate with water) reading buffer was added at 150 microlitres per well and read on the MSD instrument Meso Sector S 600. […]
Recorded DC50 values for a group of compounds are listed next.

Compound: C[C@@H]1CNc2c(sc3ccc4nc(-c5ccc(N6CCN(CCCc7cccc8c7n(C)c(=O)n8C7CCC(=O)NC7=O)CC6)cc5)ccc4c23)C(=O)N1 (some centres unmarked) [Compound I-172]
Study Target: MK2 (Homo sapiens, UniProt P49137)
Attribute Measured: DC50
Reported: < 1 nM
--
Compound: C[C@@H]1CN(C)c2c(sc3ccc4nc(-c5cccc(N6CCC(CN7CCN(c8cccc9c(N%10CCC(=O)NC%10=O)cncc89)CC7)CC6)c5)ccc4c23)C(=O)N1 [Compound I-267]
Study Target: MK2 (Homo sapiens, UniProt P49137)
Attribute Measured: DC50
Reported: > 100 nM
--
Compound: Cc1cc(N2CCN(CC3CCN(c4ccc5c(c4)n(C)c(=O)n5C4CCC(=O)NC4=O)CC3)CC2)ccc1-c1cc(-c2cc3c([nH]2)CCNC3=O)ccn1 (centres unmarked) [Compound I-229]
Study Target: MK2 (Homo sapiens, UniProt P49137)
Attribute Measured: DC50
Reported: > 100 nM
--
Compound: Cc1cnc(-c2ccnc(C(=O)NCCCCCCc3ccc4c(c3)n(C)c(=O)n4C3CCC(=O)NC3=O)n2)cc1-n1c(C)cc(OCc2ncc(F)cc2F)c(Cl)c1=O (centres unmarked) [Compound I-220]
Study Target: MK2 (Homo sapiens, UniProt P49137)
Attribute Measured: DC50
Reported: > 100 nM
--
Compound: Cn1c(=O)n(C2CCC(=O)NC2=O)c2ccc(N3CC(CN4CCN(c5ccc(-c6cc(-c7cc8c([nH]7)C7(CC7)CNC8=O)ccn6)cc5)CC4)C3)cc21 (centres unmarked) [Compound I-189]
Study Target: MK2 (Homo sapiens, UniProt P49137)
Attribute Measured: DC50
Reported: < 1 nM
--
Compound: C[C@@H]1CNc2c(sc3ccc4nc(-c5cccc(N6CCC(CN7CCC(CCc8cccc9c8n(C)c(=O)n9C8CCC(=O)NC8=O)CC7)CC6)c5)ccc4c23)C(=O)N1 (some centres unmarked) [Compound I-106]
Study Target: MK2 (Homo sapiens, UniProt P49137)
Attribute Measured: DC50
Reported: 1 to 10 nM
--
Compound: C[C@@H]1CNc2c(sc3ccc4nc(-c5cncc(N6CCN(CCCCCCCc7cccc8c7n(C)c(=O)n8C7CCC(=O)NC7=O)CC6)c5)ccc4c23)C(=O)N1 (some centres unmarked) [Compound I-158]
Study Target: MK2 (Homo sapiens, UniProt P49137)
Attribute Measured: DC50
Reported: 1 to 10 nM
--
Compound: C[C@@H]1CN(C)c2c(sc3ccc4nc(-c5ccc(N6CCN(CCc7cccc8c7n(C)c(=O)n8C7CCC(=O)NC7=O)CC6)cc5)ccc4c23)C(=O)N1 (some centres unmarked) [Compound I-413]
Study Target: MK2 (Homo sapiens, UniProt P49137)
Attribute Measured: DC50
Reported: 1 to 10 nM

The compound listed as C[C@@H]1Cc2[nH]c(-c3ccnc(-c4ccc(N5CCC(CN6CCC(c7cccc8c7n(C)c(=O)n8C7CCC(=O)NC7=O)CC6)CC5)cc4)c3)cc2C(=O)N1 (some centres unmarked) [Compound I-248] shows DC50 equal to 1 to 10 nM

// recorded DC50 for C[C@@H]1CNc2c(sc3ccc4nc(-c5ccc(N6CCN(CC7CCN(c8ccc9c(c8)n(C)c(=O)n9C8CCC(=O)NC8=O)CC7)CC6)nc5)ccc4c23)C(=O)N1 (some centres unmarked) [Compound I-129] : < 1 nM

Looking up CN1CC2(CNC(=O)c3c2[nH]c2c3CCc3cnc(-c4cc(N5CCN(CCCCc6cccc7c6n(C)c(=O)n7C6CCC(=O)NC6=O)CC5)ccc4F)cc3-2)C1 (centres unmarked) [Compound I-155] , I found its DC50 recorded as > 100 nM
